These measurements were taken from the RNAGym collection of RNA variant scans (doi:10.1021/acssynbio.7b00057).

B1: Pistol ribozyme (parent)
chain: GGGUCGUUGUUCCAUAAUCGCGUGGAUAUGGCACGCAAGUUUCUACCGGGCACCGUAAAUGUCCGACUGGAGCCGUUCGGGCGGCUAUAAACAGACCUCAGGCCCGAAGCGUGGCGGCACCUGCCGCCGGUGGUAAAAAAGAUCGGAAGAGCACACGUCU

Variants of: B1
protocol.details: aptazyme ON/OFF ratio, guanine; higher = stronger switching; co-transcriptional cleavage with and without guanine
measurement.kind: aptazyme ON/OFF ratio

U7C U8A G9U U11A C13A ... 1.2
G9A U10A C12U C13A ... 1.39
U8C G9A U10G U11G C12G C13A ... 1.1
U7A U8A G9A U10G C12U C13A ... 1.05
G9C U10C U11G C12A C13U ... 1.02
U7G U8C G9U U10C U11A C12U C13A ... 1.72
U7G U8G G9C U10A U11C C13A ... 1.07
U7C U8A G9U U10C U11A ... 1.27
U7G U8G G9U U10G C12A C13G ... 1.14
U7C U8C G9C C12G C13A ... 1.08
U8C G9A U11G C12U C13U ... 1.22
U8C G9C U10A U11G C12A C13G ... 1.09
U7C U8A G9C U10A U11C C13A ... 1.06
U7C U8G G9A U10A U11A C12G ... 1.1
U7C U8A G9A U10G C12U C13U ... 0.977
U7C U11C C12G C13U ... 1.22
U7G U8C U10C U11A C12G C13U ... 1.2
G9U U10G U11A C12A C13G ... 1.7
U7G G9A U10C U11G C12G C13G ... 1.06
U7G U8A G9C U11C C13U ... 1.05
U7G U8A G9U U10A C12G C13G ... 1.07
U7G U8A G9U U10A U11C C12G C13U ... 1.05
